- experimentalSystem: T1, Murine CTGF (Mus musculus, UniProt P29268)
- T1 construct: purchased Abbexa
- T1 sequence (P29268 26-348): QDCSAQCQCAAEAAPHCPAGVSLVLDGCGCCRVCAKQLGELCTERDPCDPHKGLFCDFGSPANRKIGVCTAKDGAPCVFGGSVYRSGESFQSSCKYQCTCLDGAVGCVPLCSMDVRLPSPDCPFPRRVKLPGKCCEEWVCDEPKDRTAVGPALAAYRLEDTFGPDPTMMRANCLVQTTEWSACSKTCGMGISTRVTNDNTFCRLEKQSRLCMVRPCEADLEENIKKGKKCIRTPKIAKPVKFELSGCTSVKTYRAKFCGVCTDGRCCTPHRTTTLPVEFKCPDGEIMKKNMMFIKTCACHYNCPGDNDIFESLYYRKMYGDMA
- measurementDescription: SPR binding kinetics and affinity, murine CTGF
- recordedConditions: 25° C., 1:1 binding model
reportedEndpoint: Murine CTGF kon (M⁻¹ s⁻¹)
Output spec: scalar in M⁻¹ s⁻¹, unitless text.

Check out these entries, answers already filled in.
• SEQ ID NO: 27: optimized CTGF-binding hNGAL lipocalin mutein (protein, lipocalin mutein) QDSTSDLIPAPPLSKVPLQQNFQDNQFQGKWYVVGLAGNYRLREDKDPSKMGATIYELKEDKSYDVTQVQFDDKKCLYVIETFVPGSQPGEFTLGAIKSYPGLTSQLVRVVSTNYNQHAMVFLKKVYGSEEYFHITLYGRTKELTSELKENFIRFSKSLGLPENHIVFPVPIDQCIDG = 41400
• SEQ ID NO: 14: optimized CTGF-binding hNGAL lipocalin mutein (protein, lipocalin mutein) QDSTSDLIPAPPLSKVPLQQNFQDNQFQGKWYVVGLAGNAILREDKYPAKMFATIYELKEDKSYDVTSVRFEAKSCIYTIKTFVPGSQPGEFTRGNIKSAPGQTSTLVRVVSTNYNQHAMVFFKHVSQNREIFVITLYGRTKELTSELKENFIRFSKSLGLPENHIVFPVPIDQCIDG = 190000

We next turn to a different molecule, shown below.
Query: Dear colleague, I am looking for the recorded Murine CTGF kon of the following molecule: SEQ ID NO: 24: optimized CTGF-binding hNGAL lipocalin mutein (protein, lipocalin mutein) QDSTSDLIPAPPLSKVPLQQNFQDNQFQGKWYVVGVAGNAILRTDKQPAKMFATIYELKEDKSYDVTSVRFEAKSCKYTIKTFVPGSQPGEFTAGNIKSAPGQTSTLVRVVSTNYNQHAMVFFKHVSQNREIFVITLYGRTKELTSELKENFIRFSKSLGLPENHIVFPVPIDQCIDG
Result: 299000
